B1: F-BAR and double SH3 domains protein 1, residues 467 to 528; numbered along this chain, Q86WN1 (parent)
chain: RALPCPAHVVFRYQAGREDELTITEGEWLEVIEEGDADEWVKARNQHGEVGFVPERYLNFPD

# Variants of: B1
# assay.info: abundance fitness (aPCA) (normalised: wild type 0, dead -1); higher = more abundant; growth selection in yeast, the domain comes from the species named
# assay.context: Homo sapiens
experimental.readout: abundance fitness

Name the recorded abundance fitness for A15V .
-0.585

Would you kindly repeat that for Y13M ?
-0.594

Would you kindly repeat that for H8W ?
-0.041

Would you kindly repeat that for E34Y ?
-0.053

Would you kindly repeat that for G16E ?
0.165

Would you kindly repeat that for Q14K ?
-0.078

Would you kindly repeat that for A43L ?
-0.853

Would you kindly repeat that for G26P ?
-0.776

Would you kindly repeat that for L29M ?
-0.508

Would you kindly repeat that for R1L ?
-0.47

Would you kindly repeat that for T22H ?
-0.494

Would you kindly repeat that for E18G ?
-0.072

Would you kindly repeat that for L3I ?
-0.058

Would you kindly repeat that for C5I ?
-0.419

Would you kindly repeat that for E39G ?
0.066

Would you kindly repeat that for E20T ?
-0.286
